- System: ANKA strain of P. berghei
- Assay procedure: single dose STI in vivo screen in infected mice
- Parameters: species or system Plasmodium berghei
- Protocol conditions: single 10 mg/kg po in 3% ethanol and 7% Tween 80; untreated control 5.6 ± 0.3
Could you please report measured Survival (days) po for the items listed next?
One number for each entry, in days.

- Molecule: "O=C1C2C3CC4C5C3C1C5C1(OOC3(O1)C1CC5CC(C1)CC3C5)C42 (stereo not drawn)"
  Survival (days) po: 6.0

Lab note: each molecule below needs its Survival (days) po filled in.
1. O=C(O)c1ccccc1C(=O)N1CCC2(CC1)OOC1(O2)C2CC3CC(C2)CC1C3 (stereo not drawn)
2. c1cc(CN2CCC3(CC2)OOC2(O3)C3CC4CC(C3)CC2C4)ccn1 (stereo not drawn)
3. NC(=O)CN(CC(N)=O)C[C@H]1CC[C@]2(CC1)OOC1(O2)C2CC3CC(C2)CC1C3 (stereo partly drawn)
4. Clc1ccc2c(NCCNC3CCC4(CC3)OOC3(O4)C4CC5CC(C4)CC3C5)ccnc2c1 (stereo not drawn)
5. CCCC1CCC2(CC1)OOC1(O2)C2CC3CC(C2)CC1C3 (stereo not drawn)
6. O=C1CCC2(CC1)OOC1(O2)C2CC3CC(C2)CC1C3 (stereo not drawn)
7. CN1CCN(C(=O)NC[C@H]2CC[C@]3(CC2)OOC2(O3)C3CC4CC(C3)CC2C4)CC1 (stereo partly drawn)

1. 6.3
2. 6.3
3. 6.3
4. 6.0
5. 8.4
6. 7.1
7. 8.3

---

- System: ANKA strain of P. berghei
- Assay procedure: single dose STI in vivo screen in infected mice
- Design: species or system Plasmodium berghei
- Protocol conditions: single 10 mg/kg po in 3% ethanol and 7% Tween 80; untreated control 5.6 ± 0.3
Measurement label: Survival (days) po
One number for each entry, in days.

Would you please look over these solved cases?
- Compound: "O=C(NC[C@H]1CC[C@]2(CC1)OOC1(O2)C2CC3CC(C2)CC1C3)c1cc[n+]([O-])cc1 (stereo partly shown)"
  Survival (days) po: 11.0
- Compound: "O=S(=O)(c1ccc(Cl)cc1)N1CCC2(CC1)OOC1(O2)C2CC3CC(C2)CC1C3 (stereo not shown)"
  Survival (days) po: 6.0
- Compound: "COC(=O)c1ccc(C2(c3ccc(C(=O)OC)c(C(=O)OC)c3)OOC3(O2)C2CC4CC(C2)CC3C4)cc1C(=O)OC (stereo not shown)"
  Survival (days) po: 5.3

Param readout= Survival (days) po; system= ANKA strain of P. berghei; entry= Cc1ccc(S(=O)(=O)NN=C2CCC3(CC2)OOC2(O3)C3CC4CC(C3)CC2C4)cc1 (stereo not shown) ; returns value.
6.3

---

- Test system: ANKA strain of P. berghei
- Assay procedure: single dose STI in vivo screen in infected mice
- Design: species or system Plasmodium berghei
- Protocol conditions: single 10 mg/kg sc in 3% ethanol and 7% Tween 80; untreated control 5.6 ± 0.3
- Experimental: In the single dose STI in vivo screen, Moro SPF or NMRI mice infected with the ANKA strain of P. berghei (groups of 3-5 mice) were treated on day one post-infection with trioxolanes dissolved or suspended in 3% ethanol and 7% Tween 80. […] Antimalarial activity was measured by percent reduction in parasitemia on day three post-infection and survival times compared to an untreated control group. […]
// label = label 1 if Survival (days) sc is not less than 7 days, otherwise label 0

- Compound: "C1CCC2(CC1)OOC1(CCC3(CC1)OOC1(CCCCC1)O3)O2 (stereo not drawn)"
  Answer label: "label 0"
- Compound: "C1COC2(CCC3(CC2)OOC2(O3)C3CC4CC(C3)CC2C4)O1 (stereo not drawn)"
  Answer label: "label 1"

Test whether the compound O=C(C[C@H]1CC[C@]2(CC1)OOC1(O2)C2CC3CC(C2)CC1C3)Nc1nccs1 (stereo partly drawn) records Survival (days) sc of 7 days or higher.
label 1

Cool, now O=C(NCCO)[C@H]1CC[C@]2(CC1)OOC1(O2)C2CC3CC(C2)CC1C3 (stereo partly drawn)
label 1

What do you have for O=C(O)CCC(=O)N1CCC2(CC1)OOC1(O2)C2CC3CC(C2)CC1C3 (stereo not drawn) ?
label 0

Next compound up: O=C1CCC2(CC1)OOC1(O2)C2CC3CC(C2)CC1C3 (stereo not drawn)
label 1

Try O=S(=O)(c1ccc(F)cc1)N1CCC2(CC1)OOC1(O2)C2CC3CC(C2)CC1C3 (stereo not drawn) next.
label 1

Also O=C1OC2(CCC3(CC2)OOC2(O3)C3CC4CC(C3)CC2C4)c2ccccc21 (stereo not drawn) ?
label 1

Now the same for NC(=O)C[C@H]1CC[C@]2(CC1)OOC1(O2)C2CC3CC(C2)CC1C3 (stereo partly drawn)
label 0

Same question for c1cnn(C[C@H]2CC[C@]3(CC2)OOC2(O3)C3CC4CC(C3)CC2C4)c1 (stereo partly drawn) please.
label 1

Can you handle COC(=O)c1ccc(C[C@H]2CC[C@]3(CC2)OOC2(O3)C3CC4CC(C3)CC2C4)cc1 (stereo partly drawn) next?
label 0

Query CC1(C)C2CCC1(CS(=O)(=O)N1CCC3(CC1)OOC1(O3)C3CC4CC(C3)CC1C4)C(=O)C2 (stereo not drawn) next
label 1

What would you report for C(CNC1CCC2(CC1)OOC1(O2)C2CC3CC(C2)CC1C3)CN1CCOCC1 (stereo not drawn) ?
label 1

Consider next the compound O=C1C2C3CC4C5C3C1C5C1(OOC3(O1)C1CC5CC(C1)CC3C5)C42 (stereo not drawn) in the same way.
label 1
